target: human CXCR3A (Homo sapiens (Human)); experiment: FLIPR assay; conditions: CHO-K1 cells expressing the human CXCR3A coupled to Galpha(16); CXCL10 agonist 20 nM; Fluo-4-AM fluorescence; mean values if determined several times
quantity_name: pIC50
Numbers only, as −log10 of the molar value.

The examples below pair each entry with its known result.
CC(O)c1ccc2[nH]c(-c3nc(C(F)(F)F)sc3N3CCN(C(=O)Cn4cnc5cccnc54)[C@H](C)C3)nc2c1 (stereo partly shown) [Example 166]; 9.00
C[C@@H]1CN(c2scnc2-c2nc3ccccc3[nH]2)CCN1C(=O)Cn1cnc2cnccc21 [Example 138]; 8.40
Cn1c(=O)n(CC(=O)N2CCN(c3scnc3-c3nc4cc(OCCO)ccc4[nH]3)CC2)c2ccccc21 [Example 101]; 7.85
O=C(Cn1cnc2cccnc21)N1CCC(c2scnc2-c2nc3ccccc3[nH]2)CC1 [Example 48]; 6.35
C[C@@H]1CN(c2scnc2-c2nc3c(F)c(F)ccc3[nH]2)CCN1C(=O)Cn1cnc2cccnc21 [Example 90]; 8.70

Respectfully, I request pIC50 for each entry included below.
1. C[C@@H]1CN(c2scnc2-c2nc3ccc(CO)cc3[nH]2)CCN1C(=O)Cn1cnc2cccnc21 [Example 159]
2. C[C@@H]1CN(c2sc(C(F)(F)F)nc2-c2nc3ccccc3[nH]2)CCN1C(=O)Cc1cccc2cccnc12 [Example 190]

Out:
1. 9.00
2. 9.00

* * *

target: human CXCR3A (Homo sapiens (Human), UniProt P49682); experiment: FLIPR assay; settings: CHO-K1 cells expressing the human CXCR3A coupled to Galpha(16); CXCL10 agonist 20 nM; Fluo-4-AM fluorescence; mean values if determined several times
Sequence (P49682 whole entry): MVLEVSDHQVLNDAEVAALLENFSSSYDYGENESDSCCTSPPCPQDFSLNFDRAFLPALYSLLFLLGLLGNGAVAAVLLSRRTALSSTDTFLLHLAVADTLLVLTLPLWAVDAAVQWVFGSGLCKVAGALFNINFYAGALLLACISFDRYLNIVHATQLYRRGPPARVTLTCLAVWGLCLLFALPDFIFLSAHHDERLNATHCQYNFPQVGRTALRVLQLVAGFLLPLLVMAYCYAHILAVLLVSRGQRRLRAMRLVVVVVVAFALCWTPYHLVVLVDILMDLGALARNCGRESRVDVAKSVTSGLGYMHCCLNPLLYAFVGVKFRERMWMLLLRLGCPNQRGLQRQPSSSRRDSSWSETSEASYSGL
quantity_name: IC50
The reply should read as a number followed by its unit.

Cn1c(=O)n(CC(=O)N2CCN(c3scnc3-c3nc4c(Cl)cccc4[nH]3)CC2)c2ccccc21; 4 nM
Cc1nnc(CC(=O)N2CCN(c3sc(C(F)(F)F)nc3-c3nc4ccccc4[nH]3)C[C@H]2C)o1; 8 nM
C[C@@H]1CN(c2scnc2-c2nc3ccccc3[nH]2)CCN1C(=O)Cc1ccc2cccnc2c1; 16 nM
Cc1nc(C)n(CC(=O)N2CCN(c3sc(C(F)(F)F)nc3-c3nc4cc(OC(F)(F)F)ccc4[nH]3)C[C@H]2C)n1; 2 nM

Quick request: IC50 for each listed item, please.
1. CC[C@@H]1CN(c2scnc2-c2nc3ccccc3[nH]2)CCN1C(=O)Cn1ccc2cccnc21
2. COc1cc2c(ccn2CC(=O)N2CCN(c3scnc3-c3nc4ccccc4[nH]3)CC2)cc1Cl

Out:
1. 1 nM
2. 6 nM

// sample `COC[C@H]1CN(c2scnc2-c2nc3ccccc3[nH]2)CCN1C(=O)Cn1ccc2cccnc21` , its IC50 was 25 nM

* * *

molecular target: CXCR3 (Homo sapiens (Human)); assay: Receptor internalization assay; format: cell-based; settings: human whole blood; final CXCL10 concentration 9 nM; 30 min 37° C.; CXCR3 cell surface expression on CD3 positive cells, flow cytometer; read-out: Internalization IC50
pIC50: −log10 of the molar value.
Output true (1) for pIC50 not less than 6; output false (0) otherwise.

See these solved cases before continuing.
CC(O)c1ccc2[nH]c(-c3nc(C(F)(F)F)sc3N3CCN(C(=O)Cn4cnc5cccnc54)[C@H](C)C3)nc2c1 (stereo partly drawn); true (1)
O=C(Cn1ncc2ccccc21)N1CCN(c2scnc2-c2nc3ccccc3[nH]2)CC1; false (0)
C[C@@H]1CN(c2scnc2-c2nc3ccccc3[nH]2)CCN1C(=O)Cc1noc2ccccc12; false (0)
C[C@@H]1CN(c2sc(C(F)(F)F)nc2-c2nc3ccccc3[nH]2)CCN1C(=O)Cn1cc(-c2ccccc2)nn1; false (0)
C[C@@H]1CN(c2scnc2-c2nc3cc(C(F)(F)F)ccc3[nH]2)CCN1C(=O)Cn1cnc2cccnc21; true (1)
C[C@@H]1CN(c2sc(C(F)(F)F)nc2-c2nc3ccccc3[nH]2)CCN1C(=O)CN1C(=O)Cc2ccccc21; true (1)
C[C@@H]1CN(c2scnc2-c2nc3cc(Cl)ccc3[nH]2)CCN1C(=O)Cn1c(=O)oc2ccccc21; true (1)
C[C@@H]1CN(c2sc(C(F)(F)F)nc2-c2nc3ccccc3[nH]2)CCN1C(=O)Cc1nnc(-c2ccccc2)o1; false (0)
C[C@@H]1CN(c2scnc2-c2nc3ccccc3[nH]2)CCN1C(=O)Cc1n[nH]c2ccccc12; false (0)
C[C@@H]1CN(c2sc(C(F)(F)F)nc2-c2nc3ccccc3[nH]2)CCN1C(=O)Cn1cccn1; true (1)

In: Item `O=C(Cn1ccc2ccccc21)N1CCN(c2scnc2-c2nc3ccccc3[nH]2)CC1` with pIC50 of 6 or above?
Out: false (0)

In: Is reported pIC50 greater than or equal to 6 here: `C[C@@H]1CN(c2scnc2-c2nc3ccc(C(C)(C)C)cc3[nH]2)CCN1C(=O)Cn1ccc2cccnc21`
Out: true (1)

* * *

target: human CXCR3A (Homo sapiens (Human), UniProt P49682); assay: FLIPR assay; type: cell-based; conditions: CHO-K1 cells expressing the human CXCR3A coupled to Galpha(16); CXCL10 agonist 20 nM; Fluo-4-AM fluorescence; mean values if determined several times
Exam item: assign y to entries whose IC50 is below 2 nM and n to entries at or above 2 nM. Note that a value of exactly 2 nM receives n.

Solved entries:
Cc1cnn(CC(=O)N2CCN(c3sc(C(F)(F)F)nc3-c3nc4ccccc4[nH]3)C[C@H]2C)c1; y
C[C@@H]1CN(c2scnc2-c2nc3cc(Cl)c(C(F)(F)F)cc3[nH]2)CCN1C(=O)Cn1cnc2cccnc21; y
C[C@@H]1CN(c2scnc2-c2nc3ccccc3[nH]2)CCN1C(=O)Cc1ccc2c(c1)CCO2; n
C[C@@H]1CN(c2scnc2-c2nc3ccccc3[nH]2)CCN1C(=O)Cn1ccc2ccncc21; y
COc1ccccc1-c1nc(-c2nc3ccccc3[nH]2)c(N2CCN(C(=O)Cn3cnc4cccnc43)[C@H](C)C2)s1; n

In: Please state whether IC50 is below 2 nM for `C[C@@H]1CN(c2sc(C(F)(F)F)nc2-c2nc3ccccc3[nH]2)CCN1C(=O)Cn1cc(C2CCNCC2)cn1`
Out: n

In: For this compound, is IC50 lower than 2 nM? `C[C@@H]1CN(c2scnc2-c2nc3cc(Cl)ccc3[nH]2)CCN1C(=O)Cn1c(=O)oc2ccccc21`
Out: y

In: Please determine if `Cc1cc2[nH]c(-c3ncsc3N3CCN(C(=O)Cn4cnc5cccnc54)[C@H](C)C3)nc2cc1Cl` is below 2 nM in terms of IC50.
Out: y

In: Determine whether this compound shows IC50 lower than 2 nM (ties excluded): `Cc1ccnn1CC(=O)N1CCN(c2sc(C(F)(F)F)nc2-c2nc3ccccc3[nH]2)C[C@H]1C`
Out: y

In: Threshold test, IC50 < 2 nM: `C[C@@H]1CN(c2sc(C(F)(F)F)nc2-c2nc3ccccc3[nH]2)CCN1C(=O)Cn1cc(Cl)cn1`
Out: y

* * *

Biological target: CXCR3 (Homo sapiens (Human))
Assay: Receptor internalization assay
Assay type: cell-based
Conditions: human whole blood; final CXCL10 concentration 9 nM; 30 min 37° C.; CXCR3 cell surface expression on CD3 positive cells, flow cytometer; read-out: Internalization IC50
Procedure: B): Receptor Internalization Assay: Stock solutions of test compounds are made up at a concentration of 10 mM in DMSO, and serially diluted in PBS containing 0.5% BSA to concentrations required for inhibition dose response curves. Diluted compounds are then mixed with an equal volume of CXCL10 (Peprotech) diluted in PBS. […] After washing the cells with PBS containing 0.5% BSA, the samples are then analyzed in a flow cytometer (FACS Canto II, Becton Dickinson). […]
quantity_name: IC50 (nM)
Give bare numbers, in nM.

Consider the following illustrative entries.
C[C@@H]1CN(c2scnc2-c2nc3ccccc3[nH]2)CCN1C(=O)Cn1cnc2ccncc21; 1140
C[C@@H]1CN(c2scnc2-c2nc3ccccc3[nH]2)CCN1C(=O)CN1C(=O)C(C)(C)c2ccccc21; 547
C[C@@H]1CN(c2sc(C(F)(F)F)nc2-c2nc3ccccc3[nH]2)CCN1C(=O)Cn1c(=O)[nH]c2cccnc21; 119
C[C@@H]1CN(c2sc(C(F)(F)F)nc2-c2nc3ccccc3[nH]2)CCN1C(=O)CN1CCc2[nH]ncc2C1; 5010

Dear reader, for each entry below, please note its IC50.
1. Cc1cccc2[nH]c(-c3ncsc3N3CCN(C(=O)Cn4ccc5cccnc54)[C@H](C)C3)nc12
2. COCCn1c(-c2nc(C(F)(F)F)sc2N2CCN(C(=O)Cn3cccn3)[C@H](C)C2)nc2ccccc21

Out:
1: 568; 2: 6620

I'm hoping you can list IC50 for every molecule here, please.
1. C[C@@H]1CN(c2scnc2-c2nc3cc(F)c(F)cc3[nH]2)CCN1C(=O)Cn1cnc2cccnc21
2. COc1cc2nc(-c3ncsc3N3CCN(C(=O)Cn4cnc5cccnc54)[C@H](C)C3)[nH]c2cc1OC
3. C[C@@H]1CN(c2sc(C(F)(F)F)nc2-c2nc3ccccc3[nH]2)CCN1C(=O)Cn1cc2c(n1)CCN(C)C2
4. CC[C@@H]1CN(c2scnc2-c2nc3ccccc3[nH]2)CCN1C(=O)Cn1cnc2cccnc21

Out:
1: 895; 2: 3430; 3: 271; 4: 851
